measuredTarget: DNA gyrase subunit A/DNA gyrase subunit B (Mycobacterium tuberculosis (strain ATCC 25618 / H37Rv), UniProt P9WG45+P9WG47)
Sequence (P9WG45 whole entry): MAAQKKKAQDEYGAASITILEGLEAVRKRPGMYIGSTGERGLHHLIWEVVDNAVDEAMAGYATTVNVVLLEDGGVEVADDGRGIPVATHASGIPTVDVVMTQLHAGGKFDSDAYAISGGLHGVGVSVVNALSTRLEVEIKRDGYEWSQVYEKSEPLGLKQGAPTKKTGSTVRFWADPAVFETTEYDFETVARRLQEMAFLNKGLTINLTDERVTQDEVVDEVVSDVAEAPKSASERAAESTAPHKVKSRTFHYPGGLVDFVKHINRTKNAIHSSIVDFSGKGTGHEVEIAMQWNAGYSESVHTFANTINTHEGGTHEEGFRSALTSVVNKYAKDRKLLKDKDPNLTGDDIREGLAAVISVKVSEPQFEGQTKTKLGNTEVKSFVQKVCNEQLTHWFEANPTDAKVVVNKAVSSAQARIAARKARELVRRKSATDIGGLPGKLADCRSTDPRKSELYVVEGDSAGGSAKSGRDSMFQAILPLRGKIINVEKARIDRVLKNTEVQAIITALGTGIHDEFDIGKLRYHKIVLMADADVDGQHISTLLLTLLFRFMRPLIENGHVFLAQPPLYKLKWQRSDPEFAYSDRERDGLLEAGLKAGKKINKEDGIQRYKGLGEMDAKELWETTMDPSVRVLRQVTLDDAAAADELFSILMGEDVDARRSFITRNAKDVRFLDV
Sequence (P9WG47 whole entry): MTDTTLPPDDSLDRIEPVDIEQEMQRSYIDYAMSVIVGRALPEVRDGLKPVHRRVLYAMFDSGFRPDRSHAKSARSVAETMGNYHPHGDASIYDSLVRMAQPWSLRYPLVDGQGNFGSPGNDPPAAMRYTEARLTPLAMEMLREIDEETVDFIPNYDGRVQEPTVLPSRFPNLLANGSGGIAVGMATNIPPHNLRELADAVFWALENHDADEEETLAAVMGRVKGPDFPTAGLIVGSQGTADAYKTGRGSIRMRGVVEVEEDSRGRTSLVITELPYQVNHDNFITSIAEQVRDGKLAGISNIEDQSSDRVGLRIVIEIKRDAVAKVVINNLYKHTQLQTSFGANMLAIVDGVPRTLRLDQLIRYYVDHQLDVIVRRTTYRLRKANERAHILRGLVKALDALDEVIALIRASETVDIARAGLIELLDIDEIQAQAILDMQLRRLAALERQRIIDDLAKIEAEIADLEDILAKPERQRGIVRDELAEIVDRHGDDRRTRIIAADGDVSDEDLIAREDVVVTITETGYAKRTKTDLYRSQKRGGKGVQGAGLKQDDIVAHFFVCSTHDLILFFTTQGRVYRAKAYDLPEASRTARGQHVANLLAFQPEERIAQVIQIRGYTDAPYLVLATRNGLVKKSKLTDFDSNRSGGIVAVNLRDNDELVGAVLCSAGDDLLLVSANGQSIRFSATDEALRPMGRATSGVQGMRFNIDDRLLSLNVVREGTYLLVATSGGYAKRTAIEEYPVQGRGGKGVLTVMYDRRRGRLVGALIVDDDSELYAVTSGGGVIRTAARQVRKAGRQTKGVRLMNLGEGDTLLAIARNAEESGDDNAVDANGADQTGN
experimentNotes: Inhibition of Mycobacterium tuberculosis DNA gyrase assessed as inhibition of DNA supercoiling activity using relaxed pBR322 as substrate incubated for 30 mins by ethidium bromide staining based agarose gel electrophoresis
reportedMetric: pIC50
Give bare numbers, as −log10 of the molar value.

> print(dat)
                               recordsmiles  recordednumber
1  O=C(Nc1ccc(Cl)cc1)N1CCN(c2nc(=O)c3cc(C(F)(F)F)ccc3s2)CC1            4.98
2  O=c1nc(N2CCN(Cc3ccc(Cl)cc3)CC2)sc2ccc(C(F)(F)F)cc12            5.41
3  COc1ccc2c(c1)C(=O)C(=O)N2CCN1CCN(NCc2ccccc2OC)CC1            4.31
4  Cc1ccc(NC(=O)N2CCN(c3nc(=O)c4cc(Cl)ccc4s3)CC2)cc1            5.58
5  Cc1ccc(NC(=O)N2CCN(c3nc(=O)c4cc(C(F)(F)F)ccc4s3)CC2)cc1            5.28

Would you be so kind as to report pIC50 for each listed record?
1. Cc1ccc2c(c1)C(=O)C(=O)N2CCN1CCN(NCc2ccccc2OCc2ccccc2)CC1
2. COc1ccc2c(c1)C(=O)C(=O)N2CCN1CCN(NCc2ccccc2OCc2ccccc2)CC1
3. Cc1ccc(CN2CCN(c3nc(=O)c4cc(Cl)ccc4s3)CC2)cc1
4. O=c1nc(N2CCN(C(=S)Nc3ccc([N+](=O)[O-])cc3)CC2)sc2ccc(Cl)cc12
5. Cc1ccc(CN2CCN(c3nc(=O)c4cc(C(F)(F)F)ccc4s3)CC2)cc1
6. O=c1nc(N2CCN(C(=S)Nc3ccccc3)CC2)sc2ccc(C(F)(F)F)cc12
7. O=c1nc(N2CCN(C(=S)Nc3ccc(Cl)cc3)CC2)sc2ccc(C(F)(F)F)cc12

1: 5.00; 2: 4.44; 3: 4.67; 4: 5.21; 5: 4.93; 6: 6.08; 7: 5.37

Would you be so kind as to report pIC50 for each listed record?
1. O=c1nc(N2CCN(Cc3ccc([N+](=O)[O-])cc3)CC2)sc2ccc([N+](=O)[O-])cc12
2. O=C1C(=O)N(CCN2CCN(NCc3ccc(Cl)cc3Cl)CC2)c2ccc(F)cc21
3. COc1ccc2c(c1)C(=O)C(=O)N2CCN1CCN(NCc2ccccc2)CC1
4. O=c1nc(N2CCN(Cc3ccc(Cl)cc3)CC2)sc2ccc([N+](=O)[O-])cc12

1: 5.38; 2: 4.62; 3: 4.32; 4: 5.43

====

experimentNotes: Cytotoxicity against mouse RAW264.7 cells assessed as inhibition of cell viability at 100 uM measured after 48 hrs by MTT assay relative to control
Assay type: toxicity
measurementContext: read-out: INH
Param threshold (10%) applies to cytotoxicity at 48 h, 100 µM; output YES when value >= threshold, NO when value < threshold.

Past entries and their recorded results:
> print(dat)
                               recordsmiles  answerlabel
1  O=c1nc(N2CCN(C(=S)Nc3ccc(Cl)cc3)CC2)sc2ccc(Cl)cc12          YES
2  O=C(Nc1ccccc1)N1CCN(c2nc(=O)c3cc(Cl)ccc3s2)CC1          YES
3  O=c1nc(N2CCN(C(=S)Nc3ccc(Cl)cc3)CC2)sc2ccc([N+](=O)[O-])cc12           NO

Continue with the next compound.
Does the compound `O=c1nc(N2CCN(Cc3ccc(Cl)cc3)CC2)sc2ccc(Cl)cc12` have recorded cytotoxicity at 48 h, 100 µM that is 10% or more?
NO

====

I'd be grateful if you could share measured IC50 for these entries.
measuredTarget: DNA gyrase subunit A/DNA gyrase subunit B (Mycobacterium tuberculosis (strain ATCC 25618 / H37Rv), UniProt P9WG45+P9WG47)
experimentNotes: Inhibition of Mycobacterium tuberculosis DNA gyrase assessed as inhibition of DNA supercoiling activity using relaxed pBR322 as substrate incubated for 30 mins by ethidium bromide staining based agarose gel electrophoresis

> print(dat)
                               recordsmiles   result
1  Cc1ccc2c(c1)C(=O)C(=O)N2CCN1CCN(NCc2cccc(Cl)c2Cl)CC1  43.1 µM
2  O=C1C(=O)N(CCN2CCN(NCc3cccc(Cl)c3Cl)CC2)c2ccc(F)cc21  > 50 µM
3  O=c1nc(N2CCN(Cc3ccc([N+](=O)[O-])cc3)CC2)sc2ccc(C(F)(F)F)cc12  4.55 µM
4  O=c1nc(N2CCN(Cc3ccccc3)CC2)sc2ccc(Cl)cc12  17.6 µM

Now look at this entry.
I am curious: what IC50 value has been reported for `Cc1ccc(NC(=S)N2CCN(c3nc(=O)c4cc(Cl)ccc4s3)CC2)cc1` ?
11.6 µM

====

I'd be grateful if you could share measured IC50 for these entries.
measuredTarget: DNA gyrase subunit A/DNA gyrase subunit B (Mycobacterium tuberculosis (strain ATCC 25618 / H37Rv), UniProt P9WG45+P9WG47)
experimentNotes: Inhibition of Mycobacterium tuberculosis DNA gyrase assessed as inhibition of DNA supercoiling activity using relaxed pBR322 as substrate incubated for 30 mins by ethidium bromide staining based agarose gel electrophoresis

Would you be so kind as to report IC50 for each listed record?
1. Cc1ccc(NC(=S)N2CCN(c3nc(=O)c4cc([N+](=O)[O-])ccc4s3)CC2)cc1
2. O=C(Nc1ccc([N+](=O)[O-])cc1)N1CCN(c2nc(=O)c3cc(C(F)(F)F)ccc3s2)CC1
3. Cc1ccc2c(c1)C(=O)C(=O)N2CCN1CCN(NCc2ccccc2F)CC1

1. 0.82 µM
2. 26.5 µM
3. 50 µM

Would you be so kind as to report IC50 for each listed record?
1. O=C1C(=O)N(CCN2CCN(NCc3ccccc3)CC2)c2ccc(F)cc21
2. O=c1nc(N2CCN(Cc3ccc([N+](=O)[O-])cc3)CC2)sc2ccc(Cl)cc12

1: > 50 µM; 2: 7.33 µM

====

I'd be grateful if you could share measured IC50 for these entries.
measuredTarget: DNA gyrase subunit B (Mycobacterium smegmatis)
experimentNotes: Inhibition of Mycobacterium smegmatis DNA gyrase B expressed in BL21(DE3)pLysS cells assessed as inhibition of […] activity in presence of ATP measured after 30 mins by malachite green dye based assay
Numbers only, in µM.

> print(dat)
                               recordsmiles  reportedmetric  unitsymbol  recordednumber
1  Cc1ccc2c(c1)C(=O)C(=O)N2CCN1CCN(NCc2ccccc2OCc2ccccc2)CC1            IC50          µM            28.3
2  Cc1ccc2c(c1)C(=O)C(=O)N2CCN1CCN(NCc2cccc(Cl)c2Cl)CC1            IC50          µM            53.6
3  COc1ccc2c(c1)C(=O)C(=O)N2CCN1CCN(NCc2ccc(Cl)cc2Cl)CC1            IC50          µM            15.8
4  O=C1C(=O)N(CCN2CCN(NCc3ccccc3F)CC2)c2ccccc21            IC50          µM              83
5  COc1ccc2c(c1)C(=O)C(=O)N2CCN1CCN(NCc2ccccc2)CC1            IC50          µM              92

Would you be so kind as to report IC50 for each listed record?
1. COc1ccc2c(c1)C(=O)C(=O)N2CCN1CCN(NCc2cccc(Cl)c2Cl)CC1
2. O=C1C(=O)N(CCN2CCN(NCc3ccc([N+](=O)[O-])o3)CC2)c2ccc(Cl)cc21
3. O=C1C(=O)N(CCN2CCN(NCc3ccc(Cl)cc3Cl)CC2)c2ccc(F)cc21
4. Cc1ccc2c(c1)C(=O)C(=O)N2CCN1CCN(NCc2ccccc2F)CC1
5. Cc1ccc2c(c1)C(=O)C(=O)N2CCN1CCN(NCc2ccc(Cl)cc2Cl)CC1

[73, 47.5, 43, 76, 79]

====

measuredTarget: DNA gyrase subunit B (Mycobacterium smegmatis, UniProt P0C559)
Sequence (P0C559 whole entry): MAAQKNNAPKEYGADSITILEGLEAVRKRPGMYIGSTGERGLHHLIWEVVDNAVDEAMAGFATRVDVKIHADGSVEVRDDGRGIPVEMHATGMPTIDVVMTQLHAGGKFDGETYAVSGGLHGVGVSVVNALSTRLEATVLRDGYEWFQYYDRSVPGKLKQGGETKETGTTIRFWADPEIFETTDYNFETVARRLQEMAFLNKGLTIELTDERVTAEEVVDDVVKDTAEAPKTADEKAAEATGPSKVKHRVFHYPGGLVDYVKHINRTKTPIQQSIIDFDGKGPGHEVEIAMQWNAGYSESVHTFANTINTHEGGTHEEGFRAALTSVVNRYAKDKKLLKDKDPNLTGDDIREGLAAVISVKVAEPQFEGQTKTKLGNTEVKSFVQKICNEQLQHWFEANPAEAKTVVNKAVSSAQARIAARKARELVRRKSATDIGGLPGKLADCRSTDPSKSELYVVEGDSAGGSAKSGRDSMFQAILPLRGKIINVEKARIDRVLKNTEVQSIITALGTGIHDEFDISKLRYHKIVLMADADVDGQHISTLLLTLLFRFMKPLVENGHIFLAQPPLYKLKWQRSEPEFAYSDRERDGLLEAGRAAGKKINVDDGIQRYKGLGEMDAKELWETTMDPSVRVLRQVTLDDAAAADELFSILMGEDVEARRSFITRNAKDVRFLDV
experimentNotes: Inhibition of Mycobacterium smegmatis DNA gyrase B expressed in BL21(DE3)pLysS cells assessed as inhibition of […] activity in presence of ATP measured after 30 mins by malachite green dye based assay
I'd be grateful if you could share measured IC50 for these entries.

Sample answers from the record:
> print(dat)
                               recordsmiles   result
1  COc1ccccc1CNN1CCN(CCN2C(=O)C(=O)c3cc(C)ccc32)CC1  14.1 µM
2  O=C1C(=O)N(CCN2CCN(NCc3ccccc3C(F)(F)F)CC2)c2ccccc21    51 µM
3  COc1ccc2c(c1)C(=O)C(=O)N2CCN1CCN(NCc2ccccc2OCc2ccccc2)CC1  69.7 µM
4  O=C1C(=O)N(CCN2CCN(NCc3ccc([N+](=O)[O-])o3)CC2)c2ccccc21  20.2 µM
5  O=C1C(=O)N(CCN2CCN(NCc3ccccc3OCc3ccccc3)CC2)c2ccccc21  26.6 µM

Would you be so kind as to report IC50 for each listed record?
1. O=C1C(=O)N(CCN2CCN(NCc3cccc(Cl)c3Cl)CC2)c2ccccc21
2. COc1ccc2c(c1)C(=O)C(=O)N2CCN1CCN(NCc2ccccc2C(F)(F)F)CC1

["21.7 µM", "61.5 µM"]

I am curious: what IC50 value has been reported for `O=C1C(=O)N(CCN2CCN(NCc3ccccc3F)CC2)c2ccc(F)cc21` ?
20.3 µM
